# Procedure Summary: Biochemical counterscreen for C difficile toxins, absence of UDPG, inhibitor dose response (AID 720650)
# Experimental Conditions: series mostly up to 19.5 µM
Calls of active or inactive are those of the source. How the calls were made is not given here.
Returns: one label drawn from active, inactive

These solved cases illustrate the format of a correct answer.
{"Compound": "COc1ccc(S(=O)(=O)Nc2ccc3oc(C)c(C(=O)O)c3c2)cc1", "Answer Label": "inactive"}
{"Compound": "COc1ccc(S(=O)(=O)N2CCC[C@H]2C(=O)N2CCC[C@H]2C(=O)NCc2ccncc2)cc1C", "Answer Label": "inactive"}
{"Compound": "O=C(c1ccc2c(c1)N(Cc1ccccc1)C(=O)c1ccccc1S2)N1CCCC1", "Answer Label": "active"}
{"Compound": "CC(C)c1cc(CN2CCN(Cc3ccc(F)c(F)c3)C(CCO)C2)[nH]n1 (stereo not given)", "Answer Label": "inactive"}

Switching to the query record.
Exercise: Which outcome was assigned to `O=C(OCC(=O)N1CCCc2ccccc21)c1ccc(C(F)(F)F)cc1` in this test?
Solution: inactive

====

# Procedure Summary: Biochemical counterscreen for C difficile toxins, absence of UDPG, inhibitor dose response (AID 720650)
# Experimental Conditions: series mostly up to 19.5 µM
Calls of active or inactive are those of the source. The rule behind the calls is not given here.
Returns: one label drawn from active, inactive

These solved cases illustrate the format of a correct answer.
{"Compound": "CC(=O)Oc1ccc(/C=N/NC(=O)CCSc2ccccc2)cc1", "Answer Label": "inactive"}
{"Compound": "COC(=O)C(C(=O)OC)C(CC(=O)c1ccc(Br)cc1)c1ccccc1 (stereo unspecified)", "Answer Label": "inactive"}
{"Compound": "COc1ccc(-c2ccc(OC(=O)NC3CCS(=O)(=O)C3)cc2)cc1 (stereo unspecified)", "Answer Label": "active"}

Exercise: Which outcome was assigned to O=C(NCc1cccnc1)c1cc(C2CCCCN2S(=O)(=O)c2cccc3cccnc23)on1 (stereo unspecified) in this test?
Solution: inactive

Exercise: Which outcome was assigned to `Cc1cc(C(=O)CSc2nnnn2-c2ccccc2)c(C)n1-c1ccc2c(c1)OCO2` in this test?
Solution: inactive

Exercise: Which outcome was assigned to `Cc1ccc(C(=O)Nc2ccc(O)cc2C(=O)O)cc1C` in this test?
Solution: inactive

Exercise: Which outcome was assigned to `CN(C)c1ccc(C(=S)N2CCN(C(=S)Nc3ccc(Cl)cc3)CC2)cc1` in this test?
Solution: inactive

Exercise: Which outcome was assigned to `C[C@H](CO)N1C[C@H](C)[C@@H](CN(C)C(=O)Nc2ccc(C(F)(F)F)cc2)Oc2c(NS(=O)(=O)c3cccs3)cccc2C1=O` in this test?
Solution: inactive

Exercise: Which outcome was assigned to `CCOC(=O)c1ccc(NC(=O)Oc2cc(C)c(Cl)cc2C(C)C)cc1` in this test?
Solution: inactive

Exercise: Which outcome was assigned to `Cc1nn(C)cc1-c1n[nH]c(=S)n1-c1ccc(F)cc1` in this test?
Solution: inactive

Exercise: Which outcome was assigned to `O=C(Nc1ccc(N2CCOCC2)c(Cl)c1)c1ccc(Cl)cc1` in this test?
Solution: active

Exercise: Which outcome was assigned to `C=C1CCN(Cc2ccccc2)S(=O)(=O)c2ccccc21` in this test?
Solution: inactive

Exercise: Which outcome was assigned to `COc1ccc(/C=C\c2onc(C)c2S(=O)(=O)N2CCC(C(=O)NCc3ccco3)CC2)cc1` in this test?
Solution: inactive

Exercise: Which outcome was assigned to `O=C(Nc1ccncc1)c1ccc(-c2ccccc2)cc1` in this test?
Solution: inactive

Exercise: Which outcome was assigned to `Cc1noc(/C=C/c2ccccc2F)c1S(=O)(=O)N1CCC(C(=O)N2CCN(C)CC2)CC1` in this test?
Solution: inactive

Exercise: Which outcome was assigned to `COc1cccc(C(=O)COC(=O)c2ccc(NC(=O)c3ccccc3)cc2)c1` in this test?
Solution: inactive

Exercise: Which outcome was assigned to `COc1ccc(-c2ccc3c(c2)[C@H]2[C@H](CCN2C(=O)Cc2cccnc2)[C@@H](CO)N3C)cc1` in this test?
Solution: active

Exercise: Which outcome was assigned to `O=C(C[C@@H]1CC[C@@H]2[C@H](COC[C@@H](O)CN2C(=O)c2ccccn2)O1)NC1CCC1` in this test?
Solution: inactive

Exercise: Which outcome was assigned to CCCS(=O)(=O)NC(=O)C1(C)CCN(C(=O)c2ccco2)C1 (stereo unspecified) in this test?
Solution: inactive

Exercise: Which outcome was assigned to `COc1ccc(C(=O)N2CCOCC2)cc1S(=O)(=O)N1CCCc2ccccc21` in this test?
Solution: inactive

Exercise: Which outcome was assigned to `COc1ccc(/C=C2\CCCCC2=O)cc1` in this test?
Solution: inactive

====

# Procedure Summary: Biochemical counterscreen for C difficile toxins, absence of UDPG, inhibitor dose response (AID 720650)
# Experimental Conditions: series mostly up to 19.5 µM
The source made the active and inactive calls. The rule behind the calls is not given here.
Returns: one label drawn from 1 = active, 0 = inactive

{"Smiles Record": "CC(C)=CCOc1c2occc2cc2ccc(=O)oc12", "Answer Label": 0}

Switching to the query record.
Exercise: Which outcome was assigned to `Cc1ccc(-n2c(SCC(=O)O)nc3c(sc(=S)n3-c3ccc(C)c(C)c3)c2=O)cc1` in this test?
Solution: 1

====

# Procedure Summary: Biochemical counterscreen for C difficile toxins, absence of UDPG, inhibitor dose response (AID 720650)
# Experimental Conditions: series mostly up to 19.5 µM
The source made the active and inactive calls. No rule for the calls is given here.
Returns: one label drawn from active, inactive

These solved cases illustrate the format of a correct answer.
{"Smiles Record": "Cc1ccc(C2=NS(=O)(=O)N(C)C(C(=O)NCc3ccccc3)=C2)cc1", "Answer Label": "inactive"}
{"Smiles Record": "CN(C)c1ccc(/C=C/c2cccc[n+]2[O-])cc1", "Answer Label": "inactive"}
{"Smiles Record": "O=C(CSc1ccc2nnc(-c3ccc(F)cc3)n2n1)N1CCOCC1", "Answer Label": "inactive"}
{"Smiles Record": "O=c1[nH]c(/C=C\\c2ccc(O)cc2)nc(O)c1[N+](=O)[O-]", "Answer Label": "active"}

Exercise: Which outcome was assigned to `CN1c2ccc(-c3ccccc3)cc2[C@@H]2[C@@H](CCN2C(=O)CN2CCOCC2)[C@@H]1CO` in this test?
Solution: active

Exercise: Which outcome was assigned to `O=[N+]([O-])c1ccc(S(=O)(=O)Nc2nc(-c3ccccc3)cs2)cc1` in this test?
Solution: inactive

Exercise: Which outcome was assigned to `Cc1ccc(C(=O)NCCn2cc(SCC(=O)Nc3cc(C)on3)c3ccccc32)cc1` in this test?
Solution: inactive

Exercise: Which outcome was assigned to `CCCSc1nc2c([nH]1)c(=O)n(C)c(=S)n2C` in this test?
Solution: inactive

Exercise: Which outcome was assigned to `O=C(O)c1cc(NS(=O)(=O)c2ccc(NC3CCCCC3)c([N+](=O)[O-])c2)cc(C(=O)O)c1` in this test?
Solution: inactive

Exercise: Which outcome was assigned to `CCCC(=O)Nc1ccc2c(c1)OC[C@H](C)N(CC1CCCC1)C[C@H](C)[C@@H](OC)CN(C)C2=O` in this test?
Solution: inactive

====

# Procedure Summary: Biochemical counterscreen for C difficile toxins, absence of UDPG, inhibitor dose response (AID 720650)
# Experimental Conditions: series mostly up to 19.5 µM
Active and inactive are the calls of the source. The rule behind the calls is not given here.
Quantity: AC50

Study these solved cases before continuing.
{"Compound": "COc1ccc(CNC(=O)c2cc3c(s2)CN(Cc2ccccc2)C3)cc1", "Quantity": "AC50", "Result": "inactive"}
{"Compound": "CCOC(=O)Cn1c(C(F)(F)F)nc2nc(Cl)c(Cl)nc21", "Quantity": "AC50", "Result": "inactive"}
{"Compound": "COc1cccc(C(=O)OCC(=O)Nc2cc(C)on2)c1OC", "Quantity": "AC50", "Result": "inactive"}
{"Compound": "O=C(Nc1ccc(N2CCOCC2)c(Cl)c1)c1ccc2c(c1)OCCO2", "Quantity": "AC50", "Result": "inactive"}

Exercise: Tell me the measured AC50 of `CCOc1ccc(S(=O)(=O)NCc2ccccc2Cl)cc1C(N)=O` , please.
Solution: > 39 µM (inactive)

====

# Procedure Summary: Biochemical counterscreen for C difficile toxins, absence of UDPG, inhibitor dose response (AID 720650)
# Experimental Conditions: series mostly up to 19.5 µM
Active and inactive are the calls of the source. No rule for the calls is given here.
Returns: one label drawn from active, inactive

These solved cases illustrate the format of a correct answer.
{"Compound": "CC(=O)Nc1cnc(-c2ccccc2O)cn1", "Answer Label": "active"}
{"Compound": "CN1CCN(CC(=O)Nc2cc(N(C)C)nc3ccccc23)CC1", "Answer Label": "inactive"}
{"Compound": "O=C(C[C@H]1CC[C@H]2[C@@H](COC[C@@H](O)CN2Cc2ccccc2)O1)NCCc1ccccc1", "Answer Label": "inactive"}
{"Compound": "CCOC(=O)N1CCC(c2cc(=O)n3[nH]c(-c4ccccc4)cc3n2)CC1", "Answer Label": "inactive"}

Exercise: Which outcome was assigned to `COc1c2ccc(C(=O)NCCCCc3ccccc3)cc2nn1C` in this test?
Solution: inactive

Exercise: Which outcome was assigned to CC(N)C(=O)NC(C(=O)N1CCCC1C(=O)NC(c1ccccc1)c1ccccc1)C(C)C (configuration not stated) in this test?
Solution: inactive

Exercise: Which outcome was assigned to `CC(C)Cc1[nH]c(=O)c(C#N)c2c1CCC2` in this test?
Solution: inactive

Exercise: Which outcome was assigned to `Cn1c(=O)[nH]c(=O)c2c1[nH]c(=S)n2CCCc1ccccc1` in this test?
Solution: inactive

Exercise: Which outcome was assigned to `COc1ccc(C2=NS(=O)(=O)N(C)C(C(=O)N3CCOCC3)=C2)cc1` in this test?
Solution: inactive

Exercise: Which outcome was assigned to `CCn1c(C)nc2cc(C(=O)N/N=C/c3ccc(O)cc3)ccc21` in this test?
Solution: active

Exercise: Which outcome was assigned to `O=C(C[C@H]1CC[C@H]2[C@@H](COC[C@H](O)CN2C(=O)Nc2ccc(Cl)c(Cl)c2)O1)NCc1ccncc1` in this test?
Solution: inactive

Exercise: Which outcome was assigned to `COc1ccc(NC(=O)CSc2nccn2C)cc1S(N)(=O)=O` in this test?
Solution: inactive

Exercise: Which outcome was assigned to `O=C(N/N=C/c1ccccn1)c1ccc([N+](=O)[O-])cc1Cl` in this test?
Solution: inactive
